test: inhibitors of E-selectin induction by TNFa, primary screen, imaging, HUVEC, immunofluorescence, MLSMR starter and 10KST1 sets (AID 487); conditions: HUVEC TNFalpha-induced E-selectin immunofluorescence imaging, at 2 µM; active compounds read high;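 also: signal is fraction of cell area covered by stained E-selectin grains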
Would you mind labelling by inhibition? At or over -80% is satisfied, under is not satisfied.

Example entries and their recorded answers appear below.
| compound | label |
| --- | --- |
| CSc1nc(C)c(C(=O)Nc2ccccc2)c(C)c1C#N | satisfied |
| Cc1nn(-c2ccccc2)c(C)c1/C=N/O | satisfied |

Is inhibition for CCC(C)(C)n1nnnc1C(c1cc2cc(OC)ccc2[nH]c1=O)N1CCc2ccccc21 (stereo unspecified) at or above -80%?
satisfied

Is inhibition for `CC(=O)N(C(C)=O)c1cccc2c(N(C(C)=O)C(C)=O)cccc12` at or above -80%?
satisfied

Is inhibition for CCOC(=O)c1ccc(N2C(=O)CC(N3CCN(C/C=C/c4ccccc4)CC3)C2=O)cc1 (stereo unspecified) at or above -80%?
satisfied

Is inhibition for `Cc1cc(CN2CCN(CCC#N)CC2)c(O)c(C2(C)CCCCC2)c1` at or above -80%?
not satisfied

Is inhibition for COC(=O)c1ccc(NC2(C#N)C(=O)Nc3ccccc32)cc1 (stereo unspecified) at or above -80%?
not satisfied

Is inhibition for CN(C)S(=O)(=O)c1ccc(/C(O)=C2/C(=O)C(=O)N(CCN3CCCCC3)C2c2cccnc2)cc1 (stereo unspecified) at or above -80%?
satisfied

Is inhibition for CC(NC(=O)c1noc2c1CCCCC2)c1ccccc1 (stereo unspecified) at or above -80%?
satisfied
